biological target: canine 5-HT2B receptor (Canis lupus familiaris, UniProt Q50DZ8); experiment: Canine 5-HT2B (c5-HT2B) in-vitro assay (FLIPR calcium response, antagonist mode); conditions: CHO-K1 cells stably expressing the canine 5-HT2B receptor; intracellular calcium response (FLIPR Calcium 5); inhibition of EC80 concentration of serotonin after 10 minute antagonist incubation; read-out: Compound Receptor IC50 Affinities for c5-HT2B
Sequence (Q50DZ8 1-434): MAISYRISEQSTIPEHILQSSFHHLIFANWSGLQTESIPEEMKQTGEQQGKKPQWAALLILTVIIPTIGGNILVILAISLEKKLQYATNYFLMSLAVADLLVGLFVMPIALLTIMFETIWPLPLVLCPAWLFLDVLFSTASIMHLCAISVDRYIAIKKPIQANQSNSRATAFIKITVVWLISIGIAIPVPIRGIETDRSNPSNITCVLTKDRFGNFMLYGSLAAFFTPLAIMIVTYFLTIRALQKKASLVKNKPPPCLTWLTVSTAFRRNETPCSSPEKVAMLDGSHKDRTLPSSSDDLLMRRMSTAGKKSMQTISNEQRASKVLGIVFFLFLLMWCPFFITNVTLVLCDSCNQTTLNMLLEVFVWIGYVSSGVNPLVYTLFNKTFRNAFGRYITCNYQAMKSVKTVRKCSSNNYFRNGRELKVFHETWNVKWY
measure name: IC50 (nM)

Past entries and their recorded results:
[[record]]
smiles_repr = "O=C(N[C@@H]1C[C@H]2CC[C@@H](C1)N2Cc1ccc2[nH]ccc2c1)c1ccc2cc[nH]c2c1"
result_units = "nM"
measured_number = 0.31

[[record]]
smiles_repr = "O=C(N[C@@H]1C[C@H]2CC[C@@H](C1)N2Cc1ccccc1)c1ccc2ccn(-c3ccncc3)c2c1"
result_units = "nM"
measured_number = 538

[[record]]
smiles_repr = "O=C(N[C@@H]1C[C@H]2CC[C@@H](C1)N2Cc1ccns1)c1ccc2cc[nH]c2c1"
result_units = "nM"
measured_number = 1.4


a = O=C(N[C@@H]1C[C@H]2CC[C@@H](C1)N2Cc1ccccc1)c1ccc2ccn(-c3ccc(C(F)(F)F)cc3)c2c1
b = N#Cc1c[nH]c2cc(C(=O)N[C@@H]3C[C@H]4CC[C@@H](C3)N4Cc3ccccc3)ccc12
c = O=C(N[C@@H]1C[C@H]2CC[C@@H](C1)N2Cc1cccnc1)c1ccc2cc[nH]c2c1
d = O=C(N[C@@H]1C[C@H]2CC[C@@H](C1)N2Cc1ccc(Cl)cc1)c1ccc2cc[nH]c2c1
Request: Order the records, beginning with the lowest IC50 and ending with the highest. Lab note: final answer is the ordered label list.
Response: d, b, c, a

* * *

molecular target: canine 5-HT2B receptor (Canis lupus familiaris); test: Canine 5-HT2B (c5-HT2B) in-vitro assay (FLIPR calcium response, antagonist mode); conditions: CHO-K1 cells stably expressing the canine 5-HT2B receptor; intracellular calcium response (FLIPR Calcium 5); inhibition of EC80 concentration of serotonin after 10 minute antagonist incubation; read-out: Compound Receptor IC50 Affinities for c5-HT2B
measure name: IC50 (nM)

I = O=C(N[C@@H]1C[C@H]2CC[C@@H](C1)N2Cc1ccccc1)c1ccc2cc[nH]c2n1
II = Cc1cc2ccc(C(=O)N[C@@H]3C[C@H]4CC[C@@H](C3)N4Cc3ccccc3)cc2[nH]1
III = O=C(N[C@@H]1C[C@H]2CC[C@@H](C1)N2Cc1cccs1)c1ccc2cc[nH]c2c1
IV = O=C(N[C@@H]1C[C@H]2CC[C@@H](C1)N2Cc1ccc(C(F)(F)F)cc1)c1ccc2cc[nH]c2c1
Request: Descending sort on IC50 required. Provide the ranking by listing each label in its place in the requested order.
Response: IV, II, III, I

* * *

target: canine 5-HT2B receptor (Canis lupus familiaris); test: Canine 5-HT2B (c5-HT2B) in-vitro assay (FLIPR calcium response, antagonist mode); details: CHO-K1 cells stably expressing the canine 5-HT2B receptor; intracellular calcium response (FLIPR Calcium 5); inhibition of EC80 concentration of serotonin after 10 minute antagonist incubation; read-out: Compound Receptor IC50 Affinities for c5-HT2B
measure name: IC50 (nM)

For orientation, consider the following solved cases.
[[record]]
smiles_repr = "O=C(N[C@@H]1C[C@H]2CC[C@@H](C1)N2Cc1ccccc1)c1ccc2ccn(-c3ccccc3)c2c1"
measure_name = "IC50"
measured_number = 57

[[record]]
smiles_repr = "O=C(N[C@@H]1C[C@H]2CC[C@@H](C1)N2Cc1ccccc1)c1ccc2c3c([nH]c2c1)CCCC3"
measure_name = "IC50"
measured_number = 112

[[record]]
smiles_repr = "O=C(N[C@@H]1C[C@H]2CC[C@@H](C1)N2Cc1ccccc1)c1ccc2cc(C(F)(F)F)[nH]c2c1"
measure_name = "IC50"
measured_number = 21

[[record]]
smiles_repr = "O=C(N[C@@H]1C[C@H]2CC[C@@H](C1)N2Cc1ccccc1)c1ccc2cn[nH]c2c1"
measure_name = "IC50"
measured_number = 432

[[record]]
smiles_repr = "O=C(N[C@@H]1C[C@H]2CC[C@@H](C1)N2Cc1ccccn1)c1ccc2cc[nH]c2c1"
measure_name = "IC50"
measured_number = 54.3


P = O=C(N[C@@H]1C[C@H]2CC[C@@H](C1)N2Cc1nccs1)c1ccc2cc[nH]c2c1
Q = O=C(N[C@@H]1C[C@H]2CC[C@@H](C1)N2Cc1ccc(Cl)cc1)c1ccc2cc[nH]c2n1
Request: So which one has the bigger IC50 here, P or Q ? Output the label that corresponds to your choice.
Response: P
(P: 108 nM, Q: 1.53 nM)

* * *

target: canine 5-HT2B receptor (Canis lupus familiaris); experiment: Canine 5-HT2B (c5-HT2B) in-vitro assay (FLIPR calcium response, antagonist mode); settings: CHO-K1 cells stably expressing the canine 5-HT2B receptor; intracellular calcium response (FLIPR Calcium 5); inhibition of EC80 concentration of serotonin after 10 minute antagonist incubation; read-out: Compound Receptor IC50 Affinities for c5-HT2B
measure name: IC50 (nM)

Recorded results for 5 compounds are shown here.
[[record]]
smiles_repr = "O=C(N[C@@H]1C[C@H]2CC[C@@H](C1)N2Cc1ccccc1)c1ccc2cc[nH]c2c1"
measure_name = "IC50"
result_units = "nM"
measured_number = 0.41

[[record]]
smiles_repr = "O=C(N[C@@H]1C[C@H]2CC[C@@H](C1)N2Cc1ccccc1)c1ccc2ccn(-c3ccc(F)cc3)c2c1"
measure_name = "IC50"
result_units = "nM"
measured_number = 32

[[record]]
smiles_repr = "O=C(N[C@@H]1C[C@H]2CC[C@@H](C1)N2Cc1cnccn1)c1ccc2cc[nH]c2c1"
measure_name = "IC50"
result_units = "nM"
measured_number = 3700

[[record]]
smiles_repr = "O=C(N[C@@H]1C[C@H]2CC[C@@H](C1)N2Cc1ccsn1)c1ccc2cc[nH]c2c1"
measure_name = "IC50"
result_units = "nM"
measured_number = 17.7

[[record]]
smiles_repr = "O=C(N[C@@H]1C[C@H]2CC[C@@H](C1)N2c1ccccc1)c1ccc2cc[nH]c2c1"
measure_name = "IC50"
result_units = "nM"
measured_number = 8280


P = Cn1ccnc1CN1[C@@H]2CC[C@H]1C[C@H](NC(=O)c1ccc3cc[nH]c3c1)C2
Q = O=C(N[C@@H]1C[C@H]2CC[C@@H](C1)N2Cc1ccncc1)c1ccc2cc[nH]c2c1
Request: Between P and Q , whose measured IC50 reads higher? // return label of chosen record
Response: P
(P: 8700 nM, Q: 2800 nM)

Reference source for all entries: patent US12209084B2
